Assay: ATG_NFI_CIS: Attagene CIS-FACTORIAL HepG2 Assay for human Nuclear Factor I (NFI) (AID 2282989)
Details: HepG2 cis-regulatory reporter, NFI response element transcription; actives raise or lower the signal
Calls of active or inactive are those of the source. The calls were made as follows: active = hit-call score of the fitted dose curve at least 0.9, where 1 is the maximum; inactive = score below 0.9.
I would appreciate it if you answered using one of these outcomes: 1.0 for active, 0.0 for inactive

Prompt line: Tell me the recorded outcome of this test for CCc1cccc(C)c1N(C(=O)CS(=O)(=O)O)C(C)COC (centres undefined) .
Response line: 0.0

Prompt line: What would you report for "O=C1CCCCCCCCCCC1" ?
Response line: 0.0

Prompt line: Now this one: "C=CC(=O)NC(C)(C)C"
Response line: 0.0

Prompt line: Next entry: "CC(C)CC(=O)OCc1ccccc1"
Response line: 0.0

Prompt line: Entry to check: "CCc1cccc(C)c1N"
Response line: 0.0

Prompt line: And "CC=C(C)C(C)=O" ?
Response line: 0.0

Prompt line: Then "COc1ccc(C(=O)/C(Br)=C\C(=O)O)cc1" ?
Response line: 0.0

Prompt line: Try this compound too: "CC(C)CO"
Response line: 0.0

Prompt line: Can you check "O=C(Nc1ccccc1)c1cc(Cl)ccc1O" next?
Response line: 1.0

Prompt line: Repeat with "CC(=O)CC(=O)Nc1ccccc1C"
Response line: 0.0

Prompt line: Another compound to check: "CCCCCCCCCCCCCC(=O)OC(C)C"
Response line: 0.0

Prompt line: Also "CCCCCCCCCC(C)=O" ?
Response line: 0.0

Prompt line: Subsequent entry: CCC(C)N (centres undefined)
Response line: 0.0

Prompt line: Now give it for "O=C(O)c1ccc2c(c1)C(=O)OC2=O" too.
Response line: 0.0

---

Read-out: Epidermal growth factor receptor (EGFR), EGFR (gene 1956)
Experiment: BSK_hDFCGF_EGFR: BioMAP Diversity Plus: hDFCGF Assay for Epidermal growth factor receptor (EGFR) Biomarker Activity (AID 2283057)
Details: primary human foreskin fibroblasts; actives raise or lower the signal
Activity calls are given as the source filed them. How the source made its calls: active means hit-call score of the fitted dose curve at least 0.9, where 1 is the maximum; inactive means score below 0.9.
Use one of these outcomes when replying: active, inactive

Prompt line: Dear all, I need the recorded test outcome for "CC1=CC=C(C(C)C)CC1" , thank you.
Response line: inactive

Prompt line: Let us now turn to "CCNc1nc(NC(C)(C)C)nc(OC)n1"
Response line: inactive

Prompt line: Please give the result for "c1ccc2c(c1)[nH]c1ccccc12" too.
Response line: inactive

Prompt line: How about this compound: "C=CC(=O)OCCCCCCOC(=O)C=C"
Response line: inactive

Prompt line: Request: "CC/C=C\C/C=C\C/C=C\CCCCCCCC(=O)OC"
Response line: inactive

Prompt line: Request: "Nc1cccc(N)n1"
Response line: inactive

Prompt line: Moving on to CC(Cl)COP(=O)(OCC(C)Cl)OCC(C)Cl (stereo not given)
Response line: inactive

Prompt line: Next compound up: "C=CC(=O)NC(C)(C)C"
Response line: inactive

Prompt line: Similarly, "CCCCCCCO" ?
Response line: inactive

Prompt line: Another compound to look at: "CCCCCC1=CCCC1=O"
Response line: inactive

Prompt line: What about "c1ccc2sc(SSN3CCOCC3)nc2c1" ?
Response line: active

Prompt line: Record: CCCCCCCCC(CO)CCCCCC (stereo not given)
Response line: inactive

Prompt line: Same question, "CC(C)CCCCCOC(=O)CS" this time
Response line: inactive

Prompt line: Further, for "CCCCCCOC(=O)CCCCC(=O)OCCCCCC" ?
Response line: inactive

Prompt line: Now try "CCCCC1C(=O)N(c2ccccc2)N(c2ccccc2)C1=O" .
Response line: inactive

Prompt line: Also, "Cc1c(O)cccc1O" please.
Response line: inactive

Prompt line: Try the compound "CCOC(=O)/C=C\C(=O)OCC"
Response line: inactive

Prompt line: And "CC/C=C\CCOC(=O)c1ccccc1O" ?
Response line: inactive

Prompt line: Can you check "CC=C(C)C=CC=C(C)C" next?
Response line: inactive

Prompt line: Likewise for CCC1(C)C(=O)N(Cl)C(=O)N1Cl (stereo not given) ?
Response line: inactive

Prompt line: Again, but for "O=C(Oc1ccccc1)c1ccccc1C(=O)Oc1ccccc1"
Response line: inactive

Prompt line: Try "Cc1ccc([N+](=O)[O-])cc1N" next.
Response line: inactive

Prompt line: And what about the compound "C=C(C)C(=O)OCCCCCCCCCCCC" ?
Response line: inactive

Prompt line: Try "Fc1ccc(Br)cc1" next.
Response line: inactive

Prompt line: Do the same for "O=C(Cl)c1c(Cl)c(Cl)c(C(=O)Cl)c(Cl)c1Cl" please
Response line: inactive

---

Molecular target: Retinoic acid receptor alpha (Homo sapiens)
Assay: ATG_DR5_RAR_CIS: Attagene CIS-FACTORIAL HepG2 Assay for human Retinoic Acid Receptor Alpha (RARE), DR5 submotif (AID 2282934)
Settings: HepG2 Attagene cis-factorial RARE DR5 reporter, mRNA; actives raise or lower the signal
Protocol: ATG_CIS is a cell-based, multiplexed-readout assay that uses HepG2, a human liver cell line, with measurements taken at 24 hours after chemical dosing in a 24-well plate.ATG_DR5_RAR_CIS is one of 52 assay component(s) measured or calculated from the ATG_CIS assay. […] This assay endpoint, ATG_DR5_CIS, was analyzed with bidirectional fitting relative to DMSO as the negative control and baseline of activity. […]
Calls of active or inactive are those of the source. The calls were made as follows: active = hit-call score of the fitted dose curve at least 0.9, where 1 is the maximum; inactive = score below 0.9.

{"Compound": "CC1CCC(C(C)(C)S)C(=O)C1 (stereo not drawn)", "outcome": "inactive"}
{"Compound": "O=C1CCCCCCCCCCCN1", "outcome": "inactive"}
{"Compound": "CC(C)(C)NC(=O)[C@H]1CC[C@H]2[C@@H]3CC[C@H]4NC(=O)C=C[C@]4(C)[C@H]3CC[C@]12C", "outcome": "inactive"}

---

Test: ATG_PXRE_CIS: Attagene CIS-FACTORIAL HepG2 Assay for human Pregnane X Receptor Element (PXRE) (AID 2282957)
Settings: HepG2 Attagene CIS-FACTORIAL PXRE reporter, mRNA; actives raise or lower the signal
Description: ATG_CIS is a cell-based, multiplexed-readout assay that uses HepG2, a human liver cell line, with measurements taken at 24 hours after chemical dosing in a 24-well plate.ATG_PXRE_CIS is one of 52 assay component(s) measured or calculated from the ATG_CIS assay. […] This assay endpoint, ATG_PXRE_CIS, was analyzed with bidirectional fitting relative to DMSO as the negative control and baseline of activity. […]
The source made the active and inactive calls. The calls were made as follows: active = hit-call score of the fitted dose curve at least 0.9, where 1 is the maximum; inactive = score below 0.9.
Measured Quantity: AC50

Worked cases, AC50 given:
{"Molecule": "C=Cc1cccc(C)c1", "AC50": "13.3 µM (active)"}
{"Molecule": "CC=C(C)C=CC=C(C)C", "AC50": "6.96 µM (active)"}
{"Molecule": "CC(=O)OCc1ccccc1", "AC50": "inactive"}
{"Molecule": "CC1(C)[C@@H]2CC[C@@]1(C)C(=O)C2", "AC50": "inactive"}
{"Molecule": "CC(C)COC(=O)CC(C(=O)OCC(C)C)S(=O)(=O)O (configuration not stated)", "AC50": "29.5 µM (active)"}

Prompt line: Using the record for CCC1(C)C(=O)N(Cl)C(=O)N1Cl (configuration not stated) , report its AC50.
Response line: 58.6 µM (active)

Prompt line: Now the same for "CC(=O)OC/C=C(/C)CCC=C(C)C"
Response line: inactive

Prompt line: Could you do the same for "C=CC(=O)OCCCCCCOC(=O)C=C" , please?
Response line: inactive

Prompt line: Also check "C[Si]1(C)O[Si](C)(C)O[Si](C)(C)O[Si](C)(C)O[Si](C)(C)O1"
Response line: 27.2 µM (active)

Prompt line: Note, next up: "CCN1CCCC1=O"
Response line: inactive

Prompt line: What do you have for "CC1(C)CCC[C@]2(C)[C@H]3CC(=O)O[C@]3(C)CC[C@@H]12" ?
Response line: 3.61 µM (active)

Prompt line: Try this molecule next: "Nc1ccc(O)c([N+](=O)[O-])c1"
Response line: inactive

---

Read-out: Secreted IgG (sIgG), gene 3500
Assay: BSK_BT_sIgG: BioMAP Diversity Plus: BT Assay for Secreted IgG (sIgG) Biomarker Activity (AID 2284226)
Settings: primary human B cells with PBMC
Active and inactive are the calls of the source. The calls were made as follows: active = hit-call score of the fitted dose curve at least 0.9, where 1 is the maximum; inactive = score below 0.9.
Outcomes you can answer with include only these: true (1) (active), false (0) (inactive)

Prompt line: Lab log entry: "CC1(C)CC(O)CC(C)(C)N1[O]" — outcome as called in the assay?
Response line: false (0)

Prompt line: And for "O=C(Oc1ccccc1)c1ccccc1C(=O)Oc1ccccc1" ?
Response line: false (0)

Prompt line: // next record "C=CC(=O)OCCCCCCOC(=O)C=C"
Response line: true (1)

Prompt line: Same again, this time with "Nc1cccc(N)n1"
Response line: false (0)

Prompt line: And the next one, "CCCCCCCCCCCC(C)=O" ?
Response line: false (0)

Prompt line: Subsequent entry: "COc1ccc(C(=O)c2ccccc2)c(O)c1"
Response line: false (0)

Prompt line: Check "Oc1ccc(/C=C/c2cc(O)cc(O)c2)cc1" too.
Response line: true (1)

Prompt line: Also "CC(c1cc(C(C)(C)C)cc(C(C)(C)C)c1O)c1cc(C(C)(C)C)cc(C(C)(C)C)c1O" , if possible.
Response line: true (1)

Prompt line: Queued: CCC1(C)C(=O)N(Cl)C(=O)N1Cl (stereo not given)
Response line: false (0)

Prompt line: And then "O=C1CCCCCCCCCCCN1" , what is it?
Response line: false (0)

Prompt line: // query: "CC(C)c1cccc(C(C)C)c1N"
Response line: false (0)

Prompt line: Continue with "C=CC(=O)NCOCCCC"
Response line: false (0)

Prompt line: Also, "C=CC(=O)NC(C)(C)C" please.
Response line: false (0)

Prompt line: Record: "CC/C=C\CCOC(=O)c1ccccc1O"
Response line: true (1)

Prompt line: Now the compound "CC=C(C)C(C)=O"
Response line: false (0)

Prompt line: Same thing, different compound: "C=C(C)C(=O)OCCCCCCCCCCCC"
Response line: false (0)

Prompt line: Now try CCOC(=O)C1=NN(c2ccc(Cl)cc2Cl)C(C)(C(=O)OCC)C1 (stereo not given) .
Response line: true (1)

Prompt line: Next: "CCCCCCOC(=O)CCCCC(=O)OCCCCCC"
Response line: false (0)

Prompt line: Request: "Fc1ccc(Br)cc1"
Response line: false (0)

Prompt line: One more compound: "CCNc1nc(NC(C)(C)C)nc(OC)n1"
Response line: true (1)
